# assay-system: UniProt Q99640
# Sequence (Q99640 whole entry): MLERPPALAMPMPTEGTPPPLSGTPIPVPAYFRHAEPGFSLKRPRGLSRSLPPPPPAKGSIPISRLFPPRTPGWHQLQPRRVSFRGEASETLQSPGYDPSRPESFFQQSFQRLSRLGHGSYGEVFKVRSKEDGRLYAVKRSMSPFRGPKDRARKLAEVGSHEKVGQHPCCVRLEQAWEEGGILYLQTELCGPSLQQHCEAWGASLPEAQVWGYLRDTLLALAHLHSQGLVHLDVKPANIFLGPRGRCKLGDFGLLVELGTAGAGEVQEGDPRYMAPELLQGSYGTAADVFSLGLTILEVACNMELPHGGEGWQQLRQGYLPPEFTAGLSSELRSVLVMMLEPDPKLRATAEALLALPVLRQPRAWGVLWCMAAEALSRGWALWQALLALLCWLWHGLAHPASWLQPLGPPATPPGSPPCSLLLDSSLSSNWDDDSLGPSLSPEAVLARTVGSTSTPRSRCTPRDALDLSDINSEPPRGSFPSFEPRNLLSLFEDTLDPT
pIC50: −log10 of the molar value.
A collection of molecules and their measured pIC50
measured-property: pIC50

{"line-notation": "Cc1ccc(O)c(C)c1-n1c(N)c2c3c(c(C)cnc31)CCNC2=O", "measured-property": "pIC50", "endpoint-value": "> 8.00"}
{"line-notation": "Cc1nc2c3c(c(N)n(-c4c(C)ccc(O)c4C)c3n1)C(=O)NCC2", "measured-property": "pIC50", "endpoint-value": "> 8.00"}
{"line-notation": "Cc1ccc(O)c(C)c1-n1c(N)c2c3c(c(C)ncc31)CCNC2=O", "measured-property": "pIC50", "endpoint-value": "7.30 to 8.00"}

---

# assay-system: WEE1 (Homo sapiens (Human), UniProt P30291)
# Sequence (P30291 whole entry): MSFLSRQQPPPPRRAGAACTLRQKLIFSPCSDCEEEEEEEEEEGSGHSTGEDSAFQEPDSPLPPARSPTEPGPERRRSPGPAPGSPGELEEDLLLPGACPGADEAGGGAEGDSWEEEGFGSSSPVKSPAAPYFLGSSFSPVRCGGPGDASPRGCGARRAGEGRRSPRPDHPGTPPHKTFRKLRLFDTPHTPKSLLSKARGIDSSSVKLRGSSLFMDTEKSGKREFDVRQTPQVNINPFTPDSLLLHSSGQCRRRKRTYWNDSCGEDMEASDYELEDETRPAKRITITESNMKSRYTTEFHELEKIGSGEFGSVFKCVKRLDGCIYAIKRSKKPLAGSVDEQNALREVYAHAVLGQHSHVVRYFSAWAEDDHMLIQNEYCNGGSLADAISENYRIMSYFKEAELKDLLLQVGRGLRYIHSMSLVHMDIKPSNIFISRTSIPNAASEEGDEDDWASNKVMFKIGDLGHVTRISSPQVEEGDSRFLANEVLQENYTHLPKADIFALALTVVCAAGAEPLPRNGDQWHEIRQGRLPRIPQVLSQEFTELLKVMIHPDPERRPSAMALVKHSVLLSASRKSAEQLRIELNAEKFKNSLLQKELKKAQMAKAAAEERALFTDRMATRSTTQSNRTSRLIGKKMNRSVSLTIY

{"line-notation": "Cc1ccc(O)c(C)c1-n1c(N)c2c3c(c(C)cnc31)CCNC2=O", "assay-system": "WEE1 (Homo sapiens (Human), UniProt P30291)", "units": "nM", "censoring-qualifier": "=", "IC50": 1210}
{"line-notation": "Cc1ccc(O)c(C)c1-n1c(N)c2c3c(c(C)ncc31)CCNC2=O", "assay-system": "WEE1 (Homo sapiens (Human), UniProt P30291)", "units": "nM", "censoring-qualifier": ">", "IC50": 10000}
